Hello, the source for this data is ChEMBL document CHEMBL1150477, in case you need it.

Molecular target: Angiotensin II receptor (Homo sapiens) (UniProt P30556+P50052)
Sequence (P30556 whole entry, looked up, one chain of several): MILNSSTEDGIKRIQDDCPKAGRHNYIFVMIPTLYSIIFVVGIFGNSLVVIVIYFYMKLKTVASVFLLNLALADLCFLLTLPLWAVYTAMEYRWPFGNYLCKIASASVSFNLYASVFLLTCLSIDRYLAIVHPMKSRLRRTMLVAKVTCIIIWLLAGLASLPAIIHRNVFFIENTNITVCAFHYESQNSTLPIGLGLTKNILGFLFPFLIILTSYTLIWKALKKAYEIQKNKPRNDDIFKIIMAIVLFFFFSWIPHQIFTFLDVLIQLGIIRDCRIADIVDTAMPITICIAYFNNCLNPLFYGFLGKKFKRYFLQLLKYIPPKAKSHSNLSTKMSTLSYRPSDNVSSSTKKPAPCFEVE
Assay: Ratio of inhibitory concentration against AT2 receptor and AT1 receptor of human adrenal membrane
Listed below: Ratio values for each entry.
experimental readout: Ratio

CCCc1nc2ccc(NC(=O)N3CCOCC3)cc2c(=O)n1Cc1ccc(-c2ccccc2S(=O)(=O)NC(=O)OCCC(C)C)cc1F
4.7
CCc1nc2ccc(NC(=O)N(C)C(C)C)cc2c(=O)n1Cc1ccc(-c2ccccc2S(=O)(=O)NC(=O)COCC(C)C)cc1F
0.18
CCCc1nc2ccc(NC(=O)NC(C)C)cc2c(=O)n1Cc1ccc(-c2ccccc2S(=O)(=O)NC(=O)COCC(C)C)cc1F
2.3
CCc1nc2ccc(NC(=O)NC(C)C)cc2c(=O)n1Cc1ccc(-c2ccccc2S(=O)(=O)NC(=O)OCCC2CC2)cc1F
0.9
CCNC(=O)Nc1ccc2nc(CC)n(Cc3ccc(-c4ccccc4S(=O)(=O)NC(=O)OCCC4CC4)cc3F)c(=O)c2c1
0.77
CCCCOC(=O)NS(=O)(=O)c1ccccc1-c1ccc(Cn2c(CC)nc3ccc(NC(=O)N4CCOCC4)cc3c2=O)c(F)c1
1
CCc1nc2ccc(NC(=O)N(C)C(C)C)cc2c(=O)n1Cc1ccc(-c2ccccc2S(=O)(=O)NC(=O)OCCC(C)C)cc1F
0.9
Cc1nc2ccc(NC(=O)NC(C)C)cc2c(=O)n1Cc1ccc(-c2ccccc2S(=O)(=O)NC(=O)OCCC(C)C)cc1F
0.93
CCc1nc2ccc(NC(=O)c3ccccn3)cc2c(=O)n1Cc1ccc(-c2ccccc2S(=O)(=O)NC(=O)OCCC(C)C)cc1F
0.47
CCNC(=O)Nc1ccc2nc(CC)n(Cc3ccc(-c4ccccc4S(=O)(=O)NC(=O)c4ccccc4F)cc3F)c(=O)c2c1
1.1
CCCCc1nc2ccc(NC(=O)N(C)C(C)C)cc2c(=O)n1Cc1ccc(-c2ccccc2S(=O)(=O)NC(=O)OCCC(C)C)cc1F
4.4
CCc1ccc(C(=O)NS(=O)(=O)c2ccccc2-c2ccc(Cn3c(CC)nc4ccc(NC(=O)N(C)C(C)C)cc4c3=O)c(F)c2)cc1
1.6
CCc1nc2ccc(NC(=O)N(C)C(C)C)cc2c(=O)n1Cc1ccc(-c2ccccc2S(=O)(=O)NC(=O)OCC=C(C)C)cc1F
0.62
Cc1nc2ccc(NC(=O)N(C)C)cc2c(=O)n1Cc1ccc(-c2ccccc2S(=O)(=O)NC(=O)OCCC2CC2)cc1F
0.96
CCc1ccc(C(=O)NS(=O)(=O)c2ccccc2-c2ccc(Cn3c(CC)nc4ccc(NC(=O)NC(C)C)cc4c3=O)c(F)c2)c(F)c1
2

----------
Target sequence: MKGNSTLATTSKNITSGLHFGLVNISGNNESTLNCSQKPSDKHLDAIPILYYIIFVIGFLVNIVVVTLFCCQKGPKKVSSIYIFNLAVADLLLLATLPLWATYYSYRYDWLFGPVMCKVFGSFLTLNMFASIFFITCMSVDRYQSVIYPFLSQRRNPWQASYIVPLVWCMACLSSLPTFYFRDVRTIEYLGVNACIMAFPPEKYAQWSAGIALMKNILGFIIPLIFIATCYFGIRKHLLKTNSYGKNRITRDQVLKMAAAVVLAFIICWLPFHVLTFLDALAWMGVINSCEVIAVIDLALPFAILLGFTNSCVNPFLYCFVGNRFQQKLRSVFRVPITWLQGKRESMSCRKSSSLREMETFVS
pIC50: −log10 of the molar value.
experimental readout: pIC50

Cc1nc2ccc(NC(=O)N(C)C(C)C)cc2c(=O)n1Cc1ccc(-c2ccccc2S(=O)(=O)NC(=O)OCCC(C)C)cc1F
7.90
CCCc1nc2ccc(NC(=O)NC(C)C)cc2c(=O)n1Cc1ccc(-c2ccccc2S(=O)(=O)NC(=O)COCC(C)C)cc1F
8.46
CCc1nc2ccc(NC(=O)c3ccccn3)cc2c(=O)n1Cc1ccc(-c2ccccc2S(=O)(=O)NC(=O)OCCC(C)C)cc1F
7.43
CCCCCN(C(=O)c1ccccc1)c1ccc2nc(CCC)n(Cc3ccc(-c4ccccc4-c4nn[nH]n4)cc3)c(=O)c2c1
8.15
CCc1nc2ccc(NC(=O)NC(C)C)cc2c(=O)n1Cc1ccc(-c2ccccc2S(=O)(=O)NC(=O)OCCC2CC2)cc1F
8.19
CCCc1nc2ccc(NC(=O)N3CCOCC3)cc2c(=O)n1Cc1ccc(-c2ccccc2S(=O)(=O)NC(=O)OCCC(C)C)cc1F
8.48
CCc1nc2ccc(NC(=O)N(C)C(C)C)cc2c(=O)n1Cc1ccc(-c2ccccc2S(=O)(=O)NC(=O)COCC(C)C)cc1F
7.96
